# System: 817829-284-R-J1-PDC complex spheroids, viability;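 note: spheroids exposed to the agents for seven days before readout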
# EXPERIMENT SUMMARY: Anticancer human tumor 817829-284-R-J1-PDC patient-derived colon adenocarcinoma cell line growth inhibition [CLK]
# TEST CONDITIONS: second compound 1 µM; first compound 0.1 µM; hits give low values
READOUT KIND: viability, T/C (%)
Report the value in % with no unit label.

Worked examples, 2 compounds total:
Nc1ccn(C2OC(CO)C(O)C2(F)F)c(=O)n1 (stereo not drawn) + CNC(=O)c1ccc(Nc2nc(OC3CCCC3)c3c(-c4ccc5nc(C)oc5c4)c[nH]c3n2)c(OC)c1
4.92
CCc1c2c(nc3ccc(O)cc13)-c1cc3c(c(=O)n1C2)COC(=O)[C@]3(O)CC + CN1CCN(c2cc(C(=O)Nc3cc4cc(-c5cnn(C)c5)ccc4cn3)ccn2)CC1
0.27

Kindly review the next compound as well.
Could you tell me which viability, T/C is on file for O=C(c1cc(Cc2n[nH]c(=O)c3ccccc23)ccc1F)N1CCN(C(=O)C2CC2)CC1 + CNC(=O)c1ccc(Nc2nc(OC3CCCC3)c3c(-c4ccc5nc(C)oc5c4)c[nH]c3n2)c(OC)c1 ?
20.1
